biological target: CETP (Homo sapiens); construct: CETP is obtained in partially purified form from human plasma by differential centrifugation and column chromatography and used for the test; from tissue; host or cells: human plasma; test: CETP fluorescence test with enriched CETP; assay type: biochemical; conditions: enriched CETP fraction from human plasma; transfer of fluorescent cholesterol ester between liposomes; 37° C. for 4 h
The entries below are paired with their reported IC50.
Response body: numeric value in nM, unit text excluded.

Worked cases, answers included:
1) CC(C)(C)c1ccc([C@H](O)c2c(C3CCCC3)cc3c(c2-c2ccc(F)cc2)[C@@H](O)CC2(CCC2)O3)cc1 [Example 48] ... 33
2) CC(C)c1cc2c(c(-c3ccc(F)cc3)c1[C@H](F)c1ccc(C(F)(F)F)cc1)[C@@H](O)CC1(CC1)O2 [Example 58] ... 300
3) CC(C)c1cc2c(c(C3CCCC3)c1[C@H](F)c1ccc(C(F)(F)F)cc1)[C@@H](O)CC1(CCC1)O2 [Example 43] ... 61
4) CC(C)c1cc2c(c(-c3ccc(F)cc3)c1[C@@H](O)c1ccc(OC(F)(F)F)cc1)[C@@H](O)CC(C)(C)O2 [Example 11] ... 63

Query for CETP (Homo sapiens): what IC50 does the record show for CC(C)c1cc2c(c(-c3ccc(F)cc3)c1[C@@H](O)c1ccc(C(C)(C)C)cc1)[C@@H](O)CC(C)(C)O2 [Example 15] ?
38

Query for CETP (Homo sapiens): what IC50 does the record show for CC(C)(C)c1ccc(C(=O)c2c(C3CCCC3)cc3c(c2-c2ccc(F)cc2)[C@@H](O)CC2(CCC2)O3)cc1 [Example 47] ?
50

Query for CETP (Homo sapiens): what IC50 does the record show for CC(C)c1cc2c(c(C3=CCCCC3)c1C(=O)c1ccc(C(F)(F)F)cc1)[C@@H](O)CC(C)(C)O2 [Example 19] ?
200

----------
molecular target: CETP (Homo sapiens, UniProt P11597); construct: CETP is obtained in partially purified form from human plasma by differential centrifugation and column chromatography and used for the test; from tissue; host or cells: human plasma; assay: CETP-SPA test; assay type: biochemical; conditions: transfer of 3H-cholesterol ester from human HDL to biotinylated LDL; 37° C. for 18 h
Sequence (P11597 18-493): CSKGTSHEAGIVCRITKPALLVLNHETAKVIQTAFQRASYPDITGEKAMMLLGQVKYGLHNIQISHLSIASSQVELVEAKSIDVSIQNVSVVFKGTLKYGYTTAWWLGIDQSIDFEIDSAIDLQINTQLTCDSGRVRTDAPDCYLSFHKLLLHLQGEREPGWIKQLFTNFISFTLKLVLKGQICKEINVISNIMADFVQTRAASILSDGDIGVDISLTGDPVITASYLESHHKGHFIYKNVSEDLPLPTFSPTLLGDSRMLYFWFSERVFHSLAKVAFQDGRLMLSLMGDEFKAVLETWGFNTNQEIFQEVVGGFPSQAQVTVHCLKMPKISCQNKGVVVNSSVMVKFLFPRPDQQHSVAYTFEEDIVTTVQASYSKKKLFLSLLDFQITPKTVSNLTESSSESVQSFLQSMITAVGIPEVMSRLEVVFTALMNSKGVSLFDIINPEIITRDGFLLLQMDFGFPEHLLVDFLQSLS
measurement kind: IC50

Worked cases, answers included:
1. CC(C)c1cc2c(c(-c3ccc(F)cc3)c1C(=O)c1ccc(C(F)(F)F)cc1)[C@@H](O)CC1(CCC1)O2 ... 18 nM
2. CC(C)c1cc2c(c(-c3ccc(F)cc3)c1[C@H](O)c1ccc(C(C)(C)C)cc1)[C@@H](O)CC1(CCC1)O2 ... 400 nM
3. CC(C)c1cc2c(c(-c3ccc(F)cc3)c1C(=O)c1ccc(C(C)(C)C)cc1)[C@@H](O)CC1(CCC1)O2 ... 16 nM

Next up:
What IC50 value was documented for this compound, CC(C)c1cc2c(c(-c3ccc(F)cc3)c1Cc1ccc(C(F)(F)F)cc1)[C@@H](O)CC(C)(C)O2 ?
33 nM

----------
Target: CETP (Homo sapiens, UniProt P11597)
Construct: CETP is obtained in partially purified form from human plasma by differential centrifugation and column chromatography and used for the test; from tissue; host or cells: human plasma
Test: CETP fluorescence test with enriched CETP
Format: biochemical
Settings: enriched CETP fraction from human plasma; transfer of fluorescent cholesterol ester between liposomes; 37° C. for 4 h
Experimental: CETP is obtained in partially purified form from human plasma by differential centrifugation and column chromatography and used for the test. To this end, human plasma is adjusted to a density of 1.21 g per ml using NaBr and centrifuged at 4° C. at 50 000 rpm for 18 h. […] The change in the fluorescence at 485/535 nm is a measure of the CE transfer; the inhibition of the transfer in comparison to the control batch without substance is determined.
The entries below are paired with their reported IC50.
Lab note: write values as number then unit, every time.

Worked cases, answers included:
1. CC(C)c1cc2c(c(C3=CCCC3)c1[C@@H](O)c1ccc(C(F)(F)F)cc1)[C@@H](O)CC(C)(C)O2 ... 51 nM
2. CC(C)c1cc2c(c(-c3ccc(F)cc3)c1C(=O)c1ccc(C(F)(F)F)cc1)[C@@H](O)CC1(CCC1)O2 ... 35 nM
3. CC(C)c1cc2c(c(-c3ccc(F)cc3)c1[C@H](O)c1ccc(C(C)(C)C)cc1)[C@@H](O)CC1(CCC1)O2 ... 800 nM
4. CC(C)c1cc2c(c(-c3ccc(F)cc3)c1[C@@H](O)c1ccc(C(F)(F)F)cc1)[C@@H](O)CC1(CC1)O2 ... 27 nM
5. O[C@@H](c1ccc(C(F)(F)F)cc1)c1c(C2CCCC2)cc2c(c1-c1ccc(F)cc1)[C@@H](O)CC1(CCC1)O2 ... 26 nM
6. O=C(c1ccc(OC(F)(F)F)cc1)c1c(C2CCCC2)cc2c(c1-c1ccc(F)cc1)[C@@H](O)CC1(CCC1)O2 ... 42 nM

What IC50 value was documented for this molecule, CC(C)c1cc2c(c(-c3ccc(F)cc3)c1[C@@H](F)c1ccc(C(F)(F)F)cc1)[C@@H](O)CC(C)(C)O2 ?
32 nM

What IC50 value was documented for this molecule, CC(C)c1cc2c(c(-c3ccc(F)cc3)c1Cc1ccc(C(F)(F)F)cc1)[C@@H](O)CC1(CCC1)O2 ?
19 nM

What IC50 value was documented for this molecule, CC(C)c1cc2c(c(-c3ccc(F)cc3)c1C(=O)c1ccc(OC(F)(F)F)cc1)[C@@H](O)CC1(CCC1)O2 ?
36 nM
